# tested-on: human CTPS1 (Homo sapiens, UniProt P17812)
# Sequence (P17812 1-591): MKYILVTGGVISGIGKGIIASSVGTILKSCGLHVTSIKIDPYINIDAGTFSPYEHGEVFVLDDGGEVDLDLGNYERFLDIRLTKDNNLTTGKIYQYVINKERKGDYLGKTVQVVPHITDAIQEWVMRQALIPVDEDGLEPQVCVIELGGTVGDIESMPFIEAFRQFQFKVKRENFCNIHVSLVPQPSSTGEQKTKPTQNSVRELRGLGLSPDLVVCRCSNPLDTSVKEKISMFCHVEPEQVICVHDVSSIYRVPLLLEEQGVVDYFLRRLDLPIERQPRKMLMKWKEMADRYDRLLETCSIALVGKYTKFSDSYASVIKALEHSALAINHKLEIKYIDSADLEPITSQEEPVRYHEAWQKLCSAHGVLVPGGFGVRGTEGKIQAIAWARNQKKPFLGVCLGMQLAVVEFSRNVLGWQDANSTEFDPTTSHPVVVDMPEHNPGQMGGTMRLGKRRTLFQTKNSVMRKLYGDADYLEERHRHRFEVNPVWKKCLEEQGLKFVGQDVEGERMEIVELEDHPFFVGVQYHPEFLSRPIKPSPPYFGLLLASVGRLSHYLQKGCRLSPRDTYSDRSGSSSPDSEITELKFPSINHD
# experimental-details: ADP-Glo assay, human CTPS1 enzyme inhibition
# Assay type: biochemical
# assay-context: wild-type human CTPS1, 25 nM enzyme; ADP-Glo; read-out: ADP-Glo_WT_hCTPS1—25 nM_IC50 (IC50)
Counter-ions that a name gives are not always drawn.
Entries and their measured IC50 follow.

Observe how each entry below is paired with its result.
>>> value_measured("CCOc1cncc(-c2ccc(C(=O)N[C@H](c3cc(NS(=O)(=O)C4CC4)ccn3)[C@H]3CCCO3)nc2)n1")
"0.025 to 0.05 µM"
>>> value_measured("CCOc1cncc(-c2cnc(C(=O)N[C@@H](CN3CCCCC3)c3cccc(NS(=O)(=O)C(F)F)c3)s2)n1")
"0.005 to 0.025 µM"
>>> value_measured("CCOc1cncc(-c2ccc(C(=O)N[C@@H](c3cc(NS(=O)(=O)C4CC4)ccn3)[C@H]3CCCO3)nc2)n1")
"0.025 to 0.05 µM"
>>> value_measured("O=C(N[C@H](c1ccnc(NS(=O)(=O)C2CC2)n1)[C@@H]1CCOC1)c1ncc(-c2cnn3ccc(Cl)cc23)s1")
"0.005 to 0.025 µM"
>>> value_measured("O=C(N[C@@H](CCN1CCCCC1)c1cc(NS(=O)(=O)C2CC2)ccn1)c1ncc(-c2cnn3ccc(Cl)cc23)s1 (single isomer, unassigned)")
"> 0.1 µM"

# input Give IC50 for the following molecule: `CCOc1cncc(-c2cnc(C(=O)N[C@@H](c3cc(NS(=O)(=O)C4CC4)ccn3)[C@@H]3CC(=O)N(C)C3)s2)n1`
# output 0.005 to 0.025 µM

# input Give IC50 for the following molecule: `CCOc1cncc(-c2cnc(C(=O)N[C@@H](c3cc(NS(=O)(=O)C4CC4)ccn3)[C@H](C)COC)s2)n1`
# output ≤ 0.005 µM

# input Give IC50 for the following molecule: `CCOc1cncc(-c2cnc(C(=O)N[C@@H](c3cc(NS(=O)(=O)C4CC4)ccn3)[C@H](C)CO)s2)n1`
# output ≤ 0.005 µM

# input Give IC50 for the following molecule: O=C(N[C@@H](c1cc(NS(=O)(=O)C2CC2)ccn1)[C@H]1CCOC1)c1ncc(-c2cnn3ccc(Cl)cc23)s1 (single isomer, unassigned)
# output 0.005 to 0.025 µM

# input Give IC50 for the following molecule: CCOc1cncc(-c2cnc(C(=O)NC3(c4cc(NS(=O)(=O)C5CC5)ccn4)CCN(C)C3)s2)n1 (centres unmarked) [I-182, formic acid salt]
# output 0.005 to 0.025 µM
